assay.target: RSV-F of RSV subtype A strain A2 (1540) (respiratory syncytial virus subtype A, …, UniProt P03420 26-574)
procedure.details: cell-based or functional assay
quantity.kind: IC50 [pM] for RSV A2 Neutralization, Trial 1

// worked examples, IC50 [pM] for RSV A2 Neutralization, Trial 1 included
{"columns": ["binder", "measured.result"],
 "data": [
  ["H1H3598P (antibody, V domains shown) VH: EVQLVESGGGLGQPGGSLRLSCGASGFMFRNYAMSWVRQAPGKGLEWVSTILDSGDNTYYADSVKGRFTISRDNSKNTLYLQMNSLRAEDTAVYYCAKDPYGDYRDYYGMDVWGQGTTVTVSS VL: DIVMTQSPLSLPVTPGEPASISCRSSQSLLHSNGYNYLDWYLQKPGQSPQLLIYLGSNRASGVPDRFRGSGSGKDFTLKISRVEAEDVGLYYCMQALQTITFGQGTRLEIK", "> 10000 pM"],
  ["H1H3608P2 (antibody, V domains shown) VH: QVQLVESGGGVVQPGRSLRLSCAASGFTFSSYGMHWVRQAPGKGLEWVAVIYYEGSNDYYVDSVKGRFTISRDNSKNTLYLQMNSLRAEDTAVYYCARRDWNSFDYWGQGTLVTVSS VL: DIVMTQSPLSLSVTPGEPASISCRSSQNLLNRNGFNYLDWYLQKPGQSPQLLIYLGSNRASGVPDRFSGSGSGTDFTLKISRVEVEDVGVYYCMQAIQTPYTFGQGTKLEIK", "> 10000 pM"]
]}

Attention now turns to another entry.
Would you mind telling me what IC50 [pM] for RSV A2 Neutralization, Trial 1 value was observed for H1M3622N (antibody, V domains shown) VH: QVQLQQWGAGLLKPSETLSLTCAVYGGSLSDYYWSWIRQPPGKGLEWIGEINHSGDTNYDPSLKSRLTISVDTSKNQFSLKLNSVTAADTAVYYCASLYFNFWMWGRGALVTVSS VL: DIVMTQTPLSSPVILGQPASISCRSSQSLVYSDGNTYLSWLQQRPGQPPRLLIYKISNRFSGVPDRFSGSGTGTDFTLKISRVEAEDVGIYYCMQTTQFPLTFGGGTKVEIK ?
320 pM
